Quick reference for Radiochemical purity after incubation in human plasma among some compounds
test-summary: Plasma stability evaluation (TLC analysis)
Assay type: in vitro ADME
experimental-setup: 37° C., 60 minutes, TLC analysis
Enter your answer as a number in %; do not include the unit.

Consider the reported Radiochemical purity after incubation in human plasma for these compounds:
Entry Fc1cc2nc(-c3cncc(Cn4ccnc4)c3)n(CC[18F])c2cc1Br [[^18F] 200] , Radiochemical purity after incubation in human plasma reported as 92

Data point: FCCn1c(-c2cncc(Cn3cncc3[123I])c2)nc2cc(F)c(Cl)cc21 [[^123I] 610] ; Radiochemical purity after incubation in human plasma = 92

For reference, reported Radiochemical purity after incubation in human plasma for Fc1cc2nc(-c3cncc(Cn4ccnc4)c3)n(Cc3ccc([123I])cc3)c2cc1Cl [[^123I] 605] stands at 90

Please fill in: Radiochemical purity after incubation in human plasma reported for Fc1cc2nc(-c3cncc(Cn4ccnc4)c3)n(CCC[18F])c2cc1Cl [[^18F] 500] = 88

More entries:
Summary for this compound, CCn1c(-c2cncc(Cn3ccnc3)c2)nc2ccc([123I])cc21 [[^123I] 608] : Radiochemical purity after incubation in human plasma is 88

Form field Radiochemical purity after incubation in human plasma, entry CC(C)n1c(-c2cncc(Cn3ccnc3)c2)nc2ccc([123I])cc21 [[^123I] 606] : 88

// recorded Radiochemical purity after incubation in human plasma for FCCn1c(-c2cncc(Cn3ccnc3)c2)nc2cc(F)c([123I])cc21 [[^123I] 400] : 88
